As shown below, each of these molecules has a reported pIC50 value.
Target: KRAS G12S (Homo sapiens, UniProt P01116, G12S)
Construct: made in house; host or cells: E. coli, e.g. BL21 (DE3)
Sequence (P01116 1-188 isoform P01116-2 G12S): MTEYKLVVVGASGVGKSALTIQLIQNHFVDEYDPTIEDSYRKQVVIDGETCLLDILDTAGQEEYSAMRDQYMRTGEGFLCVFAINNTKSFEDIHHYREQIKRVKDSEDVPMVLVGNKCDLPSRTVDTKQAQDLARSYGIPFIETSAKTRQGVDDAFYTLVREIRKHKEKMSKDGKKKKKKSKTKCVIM
Experiment: HTRF assay of K-Ras G12S interaction with SOS1 (PPI-HTRF)
Type: binding
Conditions: 5 nM KRAS G12S, read-out: PPI-HTRF-5 nM KRAS G12S
pIC50: −log10 of the molar value.

MOLECULE | TARGET_OF_ASSAY | pIC50
N#Cc1c(N)sc2c(F)ccc(-c3c(Cl)cc4c(N5CCC6(C5)N(C(=O)n5cncn5)CC6(F)F)nc(OC[C@@]56CCCN5C[C@H](F)C6)nc4c3F)c12 (stereo partly drawn) [Compound 283] | KRAS G12S (Homo sapiens, UniProt P01116, G12S) | > 5.30
N#Cc1c(N)sc2c(F)ccc(-c3c(Cl)cc4c(N5CC6(CCN6C(=O)n6cnc(Cl)n6)CC5C(F)F)nc(OC[C@@]56CCCN5C[C@H](F)C6)nc4c3F)c12 (stereo partly drawn) [Compound 323] | KRAS G12S (Homo sapiens, UniProt P01116, G12S) | > 5.30
CCc1ncn(C(=O)N2CCC23CCN(c2nc(OC[C@@]45CCCN4C[C@H](F)C5)nc4c(F)c(-c5ccc(F)c6sc(N)c(C#N)c56)c(Cl)cc24)C3)n1 (stereo partly drawn) [Compound 314] | KRAS G12S (Homo sapiens, UniProt P01116, G12S) | > 5.30

* * *

Biological target: KRAS G12S (Homo sapiens, UniProt P01116, G12S)
Construct: made in house; host or cells: E. coli, e.g. BL21 (DE3)
Test: HTRF assay of K-Ras G12S interaction with SOS1 (PPI-HTRF)
Assay type: binding
Details: 5 nM KRAS G12S, read-out: PPI-HTRF-5 nM KRAS G12S
Below, each of the compounds is paired with its reported IC50 value.

COMPOUND | IC50
N#Cc1c(N)sc2c(F)ccc(-c3c(Cl)cc4c(N5CCC6(CCCN6)C5)nc(OC[C@@]56CCCN5C[C@H](F)C6)nc4c3F)c12 (some centres unmarked) [Compound 284] | < 5 µM
Cc1nc(C(C)C)nn1C(=O)N1CCOCC12CCN(c1nc(OC[C@@]34CCCN3C[C@H](F)C4)nc3c(F)c(-c4ccc(F)c5sc(N)c(C#N)c45)c(Cl)cc13)C2 (some centres unmarked) [Compound 337] | < 5 µM
N#Cc1c(N)sc2c(F)ccc(-c3c(Cl)cc4c(N5CCC6(CCN6C(=O)n6cnc(C7CC7)n6)C5)nc(OC[C@@]56CCCN5C[C@H](F)C6)nc4c3F)c12 (some centres unmarked) [Compound 308] | < 5 µM
N#Cc1c(N)sc2c(F)ccc(-c3c(Cl)cc4c(N5CCCC6(CCCN6C(=O)n6cncn6)C5)nc(OC[C@@]56CCCN5C[C@H](F)C6)nc4c3F)c12 (some centres unmarked) [Compound 246] | < 5 µM
N#Cc1c(N)sc2c(F)ccc(-c3c(Cl)cc4c(N5CCC6(CCN6C(=O)OC(C(F)(F)F)C(F)(F)F)C5)nc(OC[C@@]56CCCN5C[C@H](F)C6)nc4c3F)c12 (some centres unmarked) [Compound 237] | < 5 µM
N#Cc1c(N)sc2c(F)ccc(-c3c(Cl)cc4c(N5CC[C@@]6(CCN6C(=O)n6cncn6)C5)nc(OC[C@@]56CCCN5C[C@H](F)C6)nc4c3F)c12 (single isomer, unassigned) [Compound 234] | < 5 µM
Nc1nc2c(-c3c(Cl)cc4c(N5CC6(CNCCN6)C5)nc(OC[C@@]56CCCN5C[C@H](F)C6)nc4c3F)ccc(F)c2s1 [Compound 251] | > 5 µM
N#Cc1c(N)sc2c(F)ccc(-c3c(Cl)cc4c(N5CCC6(CCN6C(=O)C(F)Cl)C5)nc(OC[C@@]56CCCN5C[C@H](F)C6)nc4c3F)c12 (some centres unmarked) [Compound 244] | < 5 µM
Nc1nc2c(-c3ccc4c(N5CC6(CNCCN6)C5)nc(OC[C@@]56CCCN5C[C@H](F)C6)nc4c3F)ccc(F)c2s1 [Compound 253] | > 5 µM
N#CCC1CN(c2nc(OC[C@@]34CCCN3C[C@H](F)C4)nc3c(F)c(-c4ccc(F)c5sc(N)c(C#N)c45)c(Cl)cc23)CC12CCN2C(=O)n1cnc(C(F)F)n1 (some centres unmarked) [Compound 329] | < 5 µM
N#Cc1c(N)sc2c(F)ccc(-c3c(Cl)cc4c(N5CC[C@@]6(CCN6C(=O)n6cncn6)C5)nc(OC[C@@]56CCCN5C[C@H](F)C6)nc4c3F)c12 (single isomer, unassigned) [Compound 247] | < 5 µM
